Entry source: patent US10538555B2

- EXPERIMENTAL TARGET: Human PD-L1/PD-1 (Homo sapiens, UniProt Q9NZQ7)
- Construct: TVMV protease cleavage site (C); made in house; host or cells: HEK293T cells
- Sequence (Q9NZQ7 with tags, fused parts or gaps): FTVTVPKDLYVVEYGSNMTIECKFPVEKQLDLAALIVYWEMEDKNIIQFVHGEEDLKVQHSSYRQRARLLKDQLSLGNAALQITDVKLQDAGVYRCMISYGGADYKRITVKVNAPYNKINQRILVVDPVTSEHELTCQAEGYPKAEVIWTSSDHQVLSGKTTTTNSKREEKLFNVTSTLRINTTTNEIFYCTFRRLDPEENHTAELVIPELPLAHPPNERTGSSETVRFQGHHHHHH
- PROCEDURE TEXT: HTRF Human PD-L1/PD-1 binding assay (PD-1-Ig/PD-L1-His)
- CONDITION CONTEXT: PD-L1-His 10 nM, PD-1-Ig 20 nM; class symbol; read-out: HTRF Human PD-L1/PD-1 Binding Assay IC50 Range
Where a SMILES comes first, the peptide text is derived from it. Bridges are numbered along the chain shown (N, C = ends). [ ]: non-standard residue; d: D form. NMeF = CN[C@@H](Cc1ccccc1)C(=O)O; NMeNle = CCCC[C@H](NC)C(=O)O; dThz = O=C(O)[C@H]1CSCN1; Dap = NC[C@H](N)C(=O)O
ASSAY ENDPOINT: IC50

Entry CCCC[C@H]1C(=O)N(C)[C@@H](CCCC)C(=O)N[C@@H](CCCNC(=N)N)C(=O)N[C@H](C(=O)NCC(N)=O)CSCC(=O)N[C@@H](Cc2ccc(O)cc2)C(=O)N(C)[C@@H](C)C(=O)N[C@@H](CC(=O)O)C(=O)N2CCC[C@H]2C(=O)N[C@@H](Cc2c[nH]cn2)C(=O)N[C@@H](CCCCN)C(=O)N2C[C@H](O)C[C@H]2C(=O)N[C@@H](Cc2c[nH]c3ccccc23)C(=O)N[C@@H](CCCCN)C(=O)N[C@@H](Cc2csc3ccccc23)C(=O)N1C [Example 5256] — recorded IC50 = 10 to 99.9 nM

***
Looking up CCCC[C@H]1C(=O)N2CCC[C@@H]2C(=O)N[C@@H](CN)C(=O)N[C@@H](C(C)C)C(=O)N(C)[C@@H](Cc2ccccc2)C(=O)N[C@@H](Cc2ccc(O)cc2)C(=O)N2CSC[C@@H]2C(=O)N[C@@H](Cc2c[nH]c3ccccc23)C(=O)N[C@@H](Cc2ccc(O)cc2)C(=O)N[C@@H](CC(C)C)C(=O)N[C@H](C(=O)NCC(N)=O)CSCC(=O)N[C@@H](Cc2ccccc2)C(=O)N(C)[C@@H](Cc2ccccc2)C(=O)N1C [Example 10071] ({CH2CO}-F[NMeF][NMeNle][dP][Dap]V[NMeF]Y[dThz]WYLCG-NH2; thioether N-13) , I found its IC50 recorded as 10 to 99.9 nM

----------
- EXPERIMENTAL TARGET: Human PD-L1/PD-1 (Homo sapiens)
- Construct: TVMV protease cleavage site (C); made in house; host or cells: HEK293T cells
- PROCEDURE TEXT: HTRF Human PD-L1/PD-1 binding assay (PD-1-Ig/PD-L1-His)
- CONDITION CONTEXT: PD-L1-His 10 nM, PD-1-Ig 20 nM; class symbol; read-out: HTRF Human PD-L1/PD-1 Binding Assay IC50 Range
Where a SMILES comes first, the peptide text is derived from it. Bridges are numbered along the chain shown (N, C = ends). [ ]: non-standard residue; d: D form. ξ: configuration not given here. Phe(4-F) = N[C@@H](Cc1ccc(F)cc1)C(=O)O; Hyp = O=C(O)[C@@H]1C[C@@H](O)CN1; NMeF = CN[C@@H](Cc1ccccc1)C(=O)O; NMeNle = CCCC[C@H](NC)C(=O)O; NMeV = CN[C@H](C(=O)O)C(C)C; hSer = N[C@@H](CCO)C(=O)O; NMeA = CN[C@@H](C)C(=O)O; Orn = NCCC[C@H](N)C(=O)O; Dab = NCC[C@H](N)C(=O)O; Dap = NC[C@H](N)C(=O)O; ξC = NC(CS)C(=O)O
The compounds listed here are annotated with their IC50.

Record CCCC[C@H]1C(=O)N2CCC[C@@H]2C(=O)N[C@@H](CC(=O)O)C(=O)N[C@@H](C(C)C)C(=O)N(C)[C@@H](C(C)C)C(=O)N[C@@H](Cc2ccc(O)cc2)C(=O)N2CCC[C@@H]2C(=O)N[C@@H](Cc2c[nH]c3ccccc23)C(=O)N[C@@H](Cc2ccc(O)cc2)C(=O)N[C@@H](CCCN)C(=O)N[C@H](C(=O)NCC(N)=O)CSCC(=O)N[C@@H](Cc2ccc(F)cc2)C(=O)N(C)[C@@H](Cc2ccccc2)C(=O)N1C [Example 9243] ({CH2CO}-[Phe(4-F)][NMeF][NMeNle][dP]DV[NMeV]Y[dP]WY[Orn]CG-NH2; thioether N-13) / Human PD-L1/PD-1 (Homo sapiens), IC50 recorded as 1 to 10 µM

Human PD-L1/PD-1 (Homo sapiens) assay, compound CCCC[C@H]1C(=O)N(C)[C@@H](CCCC)C(=O)N[C@@H](CCC(=O)O)C(=O)N[C@H](C(=O)NCC(N)=O)CSCC(=O)N[C@@H](Cc2ccc(O)cc2)C(=O)N(C)[C@@H](C)C(=O)N[C@@H](CC(N)=O)C(=O)N2CCC[C@H]2C(=O)N[C@@H](CO)C(=O)N[C@@H](CC(C)C)C(=O)N2C[C@H](O)C[C@H]2C(=O)N[C@@H](Cc2c[nH]c3ccccc23)C(=O)N[C@@H](CCN)C(=O)N[C@@H](Cc2c[nH]c3ccccc23)C(=O)N1C [Example 5247] ({CH2CO}-Y[NMeA]NPSL[Hyp]W[Dab]W[NMeNle][NMeNle]ECG-NH2; thioether N-14) , recorded IC50 = 0.001 to 0.0099 µM

Lab note: compound CCCC[C@H]1C(=O)N[C@@H](CC(N)=O)C(=O)N2CCC[C@H]2C(=O)N[C@@H](CO)C(=O)N[C@@H](CCO)C(=O)N2C[C@H](O)C[C@H]2C(=O)N[C@@H](Cc2c[nH]c3ccccc23)C(=O)N[C@@H](CN)C(=O)N[C@@H](Cc2c[nH]c3ccccc23)C(=O)N(C)[C@@H](C)C(=O)N(C)[C@@H](C)C(=O)N[C@@H](CCCNC(=N)N)C(=O)NC(C(=O)NCC(N)=O)CSCC(=O)N[C@@H](Cc2ccc(O)cc2)C(=O)N1C (stereo partly shown) [Example 10199] ({CH2CO}-Y[NMeNle]NPS[hSer][Hyp]W[Dap]W[NMeA][NMeA]R[ξC]G-NH2; thioether N-14) tested on Human PD-L1/PD-1 (Homo sapiens); recorded IC50 was 1 to 10 µM

Continuing:
The measured IC50 that CCCC[C@H]1C(=O)N[C@@H](CC(N)=O)C(=O)N2CCC[C@H]2CN[C@@H](CO)C(=O)N[C@@H](CCO)C(=O)N2CCC[C@H]2C(=O)N[C@@H](Cc2c[nH]c3ccccc23)C(=O)N[C@@H](CCN)C(=O)N[C@@H](Cc2c[nH]c3ccccc23)C(=O)N(C)[C@@H](C)C(=O)N(C)[C@@H](C)C(=O)N[C@@H](CCCNC(=N)N)C(=O)NC(C(=O)NCC(N)=O)CSCC(=O)N[C@@H](Cc2ccc(O)cc2)C(=O)N1C (stereo partly shown) showed for Human PD-L1/PD-1 (Homo sapiens) is 1 to 10 µM
